- Tested on: human Factor 7 mRNA
- PROTOCOL NOTES: Antisense inhibition of human Factor 7 mRNA in HepB3 cells, lipofectin, 50 nM, real-time RT-PCR
- Format: cell-based
- RUN CONDITIONS: Example 1; HepB3 cells, lipofectin, 50 nM, ~24 h, relative to untreated control cells
In the oligonucleotide strings, read from the 5' end, every base follows the letter of its sugar. An asterisk marks phosphorothioate; unmarked linkages are phosphodiester. Other units and linkages are bracketed, terminal groups are in braces. A string of capitals states the bases alone. e = 2'-O-(2-methoxyethyl) (MOE); [5mC] = 5-methylcytosine; d = 2'-deoxy (DNA)
EXPERIMENTAL ENDPOINT: % Inhibition (human Factor 7 mRNA) (%)
Value expressed in %; do not type the unit.

Give % Inhibition (human Factor 7 mRNA) for the following substance: 407953 (antisense eA*e[5mC]*eA*eT*e[5mC]*d[5mC]*dA*dA*dT*dT*d[5mC]*d[5mC]*dA*d[5mC]*dA*eG*eG*eA*eT*e[5mC]) [compound 407953] 20

Give % Inhibition (human Factor 7 mRNA) for the following substance: 407656 (antisense e[5mC]*eA*eG*e[5mC]*eA*dA*dG*dA*dG*dT*dG*d[5mC]*dA*dG*d[5mC]*eT*eT*eG*e[5mC]*e[5mC]) [compound 407656] 43

Give % Inhibition (human Factor 7 mRNA) for the following substance: 407622 (antisense eT*e[5mC]*eA*e[5mC]*e[5mC]*dA*dA*d[5mC]*dA*dA*d[5mC]*dA*dG*dG*dA*e[5mC]*e[5mC]*eT*eG*e[5mC]) [compound 407622] 55

Give % Inhibition (human Factor 7 mRNA) for the following substance: 407922 (antisense eT*e[5mC]*eG*eA*e[5mC]*dG*d[5mC]*dA*dG*d[5mC]*d[5mC]*dT*dT*dG*dG*e[5mC]*eT*eT*eT*e[5mC]) [compound 407922] 82

Give % Inhibition (human Factor 7 mRNA) for the following substance: 407893 (antisense eT*e[5mC]*eG*eA*eA*dG*dG*d[5mC]*dA*dG*dG*dG*dA*dG*dG*e[5mC]*eA*eG*eA*eA) [compound 407893] 33
